Target: mutant G2019S LRRK2 (Homo sapiens, UniProt Q5S007, G2019S)
Sequence (Q5S007 970-2527 G2019S limits assumed): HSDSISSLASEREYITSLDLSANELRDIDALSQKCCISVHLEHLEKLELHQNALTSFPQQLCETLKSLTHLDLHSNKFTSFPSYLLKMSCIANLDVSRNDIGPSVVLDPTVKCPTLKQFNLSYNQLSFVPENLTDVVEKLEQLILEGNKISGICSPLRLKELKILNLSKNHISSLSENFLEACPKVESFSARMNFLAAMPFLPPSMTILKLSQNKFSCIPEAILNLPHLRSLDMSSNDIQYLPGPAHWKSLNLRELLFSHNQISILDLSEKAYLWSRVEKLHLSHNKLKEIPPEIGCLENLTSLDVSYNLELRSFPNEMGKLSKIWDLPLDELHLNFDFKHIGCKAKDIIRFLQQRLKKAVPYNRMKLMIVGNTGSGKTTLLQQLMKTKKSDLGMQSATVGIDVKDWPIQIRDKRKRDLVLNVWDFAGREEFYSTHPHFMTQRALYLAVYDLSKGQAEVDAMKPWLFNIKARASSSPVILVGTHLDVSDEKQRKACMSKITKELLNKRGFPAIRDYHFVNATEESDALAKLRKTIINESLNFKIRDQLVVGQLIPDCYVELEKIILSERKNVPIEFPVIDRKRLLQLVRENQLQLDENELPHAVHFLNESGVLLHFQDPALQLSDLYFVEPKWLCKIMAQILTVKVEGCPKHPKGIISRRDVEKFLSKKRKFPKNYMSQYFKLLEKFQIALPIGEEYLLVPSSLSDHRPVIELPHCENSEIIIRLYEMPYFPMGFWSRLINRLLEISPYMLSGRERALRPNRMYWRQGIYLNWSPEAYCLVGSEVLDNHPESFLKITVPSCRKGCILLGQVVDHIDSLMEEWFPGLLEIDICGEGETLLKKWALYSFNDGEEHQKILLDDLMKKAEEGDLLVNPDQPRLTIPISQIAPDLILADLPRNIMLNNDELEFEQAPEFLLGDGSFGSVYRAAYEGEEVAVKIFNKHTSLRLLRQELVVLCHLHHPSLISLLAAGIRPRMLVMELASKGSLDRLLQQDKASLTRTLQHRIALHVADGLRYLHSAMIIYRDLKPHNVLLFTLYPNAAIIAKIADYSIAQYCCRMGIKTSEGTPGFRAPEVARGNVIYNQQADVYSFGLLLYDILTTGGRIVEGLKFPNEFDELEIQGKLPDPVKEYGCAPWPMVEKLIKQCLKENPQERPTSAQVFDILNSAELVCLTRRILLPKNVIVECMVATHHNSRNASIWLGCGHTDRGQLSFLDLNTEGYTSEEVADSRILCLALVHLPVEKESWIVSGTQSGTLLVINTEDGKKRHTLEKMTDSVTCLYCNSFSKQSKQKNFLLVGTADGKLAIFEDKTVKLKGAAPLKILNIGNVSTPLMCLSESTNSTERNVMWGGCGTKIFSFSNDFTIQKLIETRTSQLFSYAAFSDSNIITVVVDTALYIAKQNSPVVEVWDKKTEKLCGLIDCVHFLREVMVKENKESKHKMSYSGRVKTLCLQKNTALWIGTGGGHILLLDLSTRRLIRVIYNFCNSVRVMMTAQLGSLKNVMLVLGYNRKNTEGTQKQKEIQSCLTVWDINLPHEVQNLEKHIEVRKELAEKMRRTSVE
Experiment: LRRK2 Assay, Format 2 (Lantha Screen), G2019S mutant
Assay type: biochemical
Design: purchased Invitrogen PV4881
Details: geometric mean of 2-4 determinations unless otherwise indicated (a: >=5; b: single determination); read-out: LRRK2, Format 2 G2019S IC50
Method: LRRK2 kinase activity was measured using Lantha Screen technology from Invitrogen. […] Upon completion, the assay was stopped and detected with a terbium labeled anti-phospho-ERM antibody (Invitrogen, cat # PR8975A). […] After an incubation of 1 hour at room temperature, the plate was read on an Envision with an excitation wavelength of 340 nm and a reading emission at both 520 nm and 495 nm. […] Inhibition of mutant G2019S LRRK2 (Invitrogen cat # PV4881) was measured in the exact same method. […]
Structures can show the parent of a compound that is named as a salt.
measurement.name: IC50 (nM)

{"compound": "C[C@@H]1C[C@H](n2c(C(F)c3csnn3)nc3cnc4ccc(Cl)cc4c32)CCO1 (some centres unmarked) [Example 220, formate salt]", "measurement.name": "IC50", "output.unit": "nM", "meas.value": 5.03}
{"compound": "C[C@@H]1C[C@H](n2c(Cc3cnns3)nc3cnc4ccc(Cl)cc4c32)CCO1 [Example 193]", "measurement.name": "IC50", "output.unit": "nM", "meas.value": 32.6}
{"compound": "CC(F)(F)Cn1c(Cc2cscn2)nc2cnc3ccc(C#N)cc3c21 [Example 224]", "measurement.name": "IC50", "output.unit": "nM", "meas.value": 11.1}

A = Cc1cn(Cc2nc3cnc4ccc(Br)cc4c3n2[C@@H]2CCO[C@H](C)C2)nn1 [Example 173]
B = N#Cc1ccc2ncc3nc(Cn4cc(C5CC5)nn4)n([C@@H]4CC[C@H](F)C4)c3c2c1 (single isomer, unassigned; ent-1) [Example 202]
C = Cc1cn(Cc2nc3cnc4ccc(F)cc4c3n2[C@@H]2CCO[C@H](C)C2)nn1 [Example 199]
D = Cc1cc(Cc2nc3cnc4ccc(Cl)cc4c3n2[C@@H]2CCO[C@H](CF)C2)no1 [Example 221]
E = Cc1cc(Cc2nc3cnc4ccc(C#N)cc4c3n2C2CCCCC2(F)F)no1 (single isomer, unassigned; ent-2) [Example C94]
I would appreciate it if you could sort these 5 compounds by IC50, starting from the smallest number. # format: label list in the order the request specifies
D, A, C, B, E

A = C[C@@H]1C[C@H](n2c(Cn3ccc(C4CC4)n3)nc3cnc4ccc(Cl)cc4c32)CCO1 [Example 160, formate salt]
B = Cc1nc(Cc2nc3cnc4ccc(C#N)cc4c3n2[C@@H]2CCO[C@H](C)C2)cs1 [Example 234, formate salt]
C = N#CCc1nc2cnc3ccc(Cl)cc3c2n1[C@@H]1CC[C@H](F)C1 (single isomer, unassigned; ent-1) [Example 204]
D = Cc1cn(Cc2nc3cnc4ccc(C#N)cc4c3n2C2CCCC2(F)F)nn1 (single isomer, unassigned; ent-2) [Example 197]
E = C[C@@H]1C[C@H](n2c(Cc3cn4ncsc4n3)nc3cnc4ccc(C#N)cc4c32)CCO1 [Example 149]
List these items ordered by IC50, big to small. # format: label list in the order the request specifies
C, D, B, A, E
(C: 35.1 nM, D: 18.7 nM, B: 9.5 nM, A: 6.36 nM, E: 2.12 nM)

1 = C[C@@H]1C[C@H](n2c(Cn3cccn3)nc3cnc4ccc(C#N)cc4c32)CCO1 [Example 121, formate salt]
2 = COc1cnn(Cc2nc3cnc4ccc(F)cc4c3n2[C@@H]2CCO[C@H](C)C2)c1 [Example 179]
3 = Cc1cnc(Cc2nc3cnc4ccc(C#N)cc4c3n2C2CCC(F)C2)cn1 (single isomer, unassigned; ent-2) [Example C89]
4 = C[C@@H]1C[C@H](n2c(Cc3noc4ccccc34)nc3cnc4ccc(C#N)cc4c32)CCO1 [Example 154, formate salt]
5 = Cc1cc(Cc2nc3cnc4ccc(C#N)cc4c3n2[C@@H]2CCC[C@@H]2F)no1 (single isomer, unassigned; ent-1) [Example 146]
List these items ordered by IC50, big to small. # format: label list in the order the request specifies
5, 3, 2, 1, 4
(5: 29.9 nM, 3: 20.5 nM, 2: 12.6 nM, 1: 5.61 nM, 4: 3.71 nM)
